procedure text: modulators of CIT2-GFP expression in yeast, primary screen, S. cerevisiae, GFP fusion, multiplex flow cytometry (AID 1870);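 note: barcoded CIT2-GFP strain pooled with four other GFP strains with rapamycin as positive control; median GFP fluorescence per well over plate mean of DMSO wells so 100% = DMSO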
measurement context: 3 h, at 10 µM, hits give high values
Active and inactive are the calls of the source.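 Rule for the calls: active = percent response above a set limit, the screen-wide mean plus 3 SD (cut at about 130% in these data); inactive = the rest.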
readout name: percent response of DMSO control

**Q:** Can you look up the measured percent response of DMSO control of COC(=O)c1ccc(COc2ccc3c(C)c(C)c(=O)oc3c2C)o1 for me?
**A:** 96.9% (inactive)

**Q:** Can you look up the measured percent response of DMSO control of COc1ccc(NC(=O)C2CSC3c4ccccc4C(=O)N23)cc1 (stereo not given) for me?
**A:** 96.5% (inactive)

**Q:** Can you look up the measured percent response of DMSO control of O=C(O)c1ccccc1O for me?
**A:** 96.9% (inactive)

**Q:** Can you look up the measured percent response of DMSO control of CN(C)CCCN1c2ccccc2CCc2ccc(Cl)cc21 for me?
**A:** 101% (inactive)

**Q:** Can you look up the measured percent response of DMSO control of Cc1ccccc1NC(=O)C1c2ccccc2Oc2ccccc21 for me?
**A:** 110% (inactive)
